System: PTPβ (Homo sapiens) | Read-out: IC50
Sequence (P23467 23-1997): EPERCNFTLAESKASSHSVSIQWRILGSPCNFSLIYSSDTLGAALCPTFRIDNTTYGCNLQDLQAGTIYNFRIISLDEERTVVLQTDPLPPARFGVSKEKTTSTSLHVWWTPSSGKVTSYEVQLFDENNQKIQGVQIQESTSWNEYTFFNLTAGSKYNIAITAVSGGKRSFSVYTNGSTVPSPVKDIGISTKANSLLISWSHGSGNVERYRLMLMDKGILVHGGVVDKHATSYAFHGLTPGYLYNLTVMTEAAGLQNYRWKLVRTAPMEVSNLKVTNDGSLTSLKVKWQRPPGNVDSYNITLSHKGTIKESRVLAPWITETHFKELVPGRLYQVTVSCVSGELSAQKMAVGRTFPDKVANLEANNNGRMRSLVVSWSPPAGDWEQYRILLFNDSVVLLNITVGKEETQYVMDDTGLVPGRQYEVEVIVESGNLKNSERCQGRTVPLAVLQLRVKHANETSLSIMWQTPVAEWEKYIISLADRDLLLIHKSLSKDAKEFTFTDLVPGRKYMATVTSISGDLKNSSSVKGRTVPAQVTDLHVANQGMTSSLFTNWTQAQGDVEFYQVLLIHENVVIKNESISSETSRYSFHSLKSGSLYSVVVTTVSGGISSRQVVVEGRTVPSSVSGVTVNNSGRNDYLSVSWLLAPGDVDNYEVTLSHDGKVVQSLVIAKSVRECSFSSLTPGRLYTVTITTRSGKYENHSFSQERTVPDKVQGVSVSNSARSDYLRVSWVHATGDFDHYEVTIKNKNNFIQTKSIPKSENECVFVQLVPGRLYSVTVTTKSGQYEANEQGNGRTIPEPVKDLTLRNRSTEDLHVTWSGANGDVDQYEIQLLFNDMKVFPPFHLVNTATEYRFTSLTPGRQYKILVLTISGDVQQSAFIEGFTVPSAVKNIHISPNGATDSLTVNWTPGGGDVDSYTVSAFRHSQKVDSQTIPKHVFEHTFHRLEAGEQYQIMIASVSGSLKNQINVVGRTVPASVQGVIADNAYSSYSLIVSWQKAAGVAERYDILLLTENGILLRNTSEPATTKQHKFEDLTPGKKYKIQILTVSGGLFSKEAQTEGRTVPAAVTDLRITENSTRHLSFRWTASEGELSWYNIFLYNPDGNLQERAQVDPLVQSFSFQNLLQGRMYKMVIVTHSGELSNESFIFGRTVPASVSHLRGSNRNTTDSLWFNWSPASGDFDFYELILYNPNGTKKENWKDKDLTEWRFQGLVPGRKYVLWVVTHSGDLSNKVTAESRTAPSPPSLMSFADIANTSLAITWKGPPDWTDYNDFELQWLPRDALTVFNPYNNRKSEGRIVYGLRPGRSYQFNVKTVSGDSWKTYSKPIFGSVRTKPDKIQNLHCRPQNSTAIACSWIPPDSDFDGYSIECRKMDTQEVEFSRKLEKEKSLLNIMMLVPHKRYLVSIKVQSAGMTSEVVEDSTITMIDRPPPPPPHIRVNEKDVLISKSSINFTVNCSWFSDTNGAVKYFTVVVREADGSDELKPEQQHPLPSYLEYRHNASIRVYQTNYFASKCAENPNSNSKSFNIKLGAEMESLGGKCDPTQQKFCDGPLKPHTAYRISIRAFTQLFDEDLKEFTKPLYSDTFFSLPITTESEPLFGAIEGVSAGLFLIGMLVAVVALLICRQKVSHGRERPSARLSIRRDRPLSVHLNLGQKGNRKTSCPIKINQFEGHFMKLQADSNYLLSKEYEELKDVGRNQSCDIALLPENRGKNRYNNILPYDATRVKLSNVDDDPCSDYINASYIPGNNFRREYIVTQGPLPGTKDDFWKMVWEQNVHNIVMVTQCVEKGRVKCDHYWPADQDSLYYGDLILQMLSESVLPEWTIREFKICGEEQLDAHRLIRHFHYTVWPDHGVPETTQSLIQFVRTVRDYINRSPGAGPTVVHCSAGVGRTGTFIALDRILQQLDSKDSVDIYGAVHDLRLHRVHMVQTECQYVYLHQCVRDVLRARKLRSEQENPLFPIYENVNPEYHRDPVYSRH

Missing value: IC50, PTPβ (Homo sapiens), entry O=C(Nc1ccc(N2CCOCC2)cc1)C(c1ccccc1)S(=O)(=O)O (stereo not shown) . Fill in?
> 200 µM

Missing value: IC50, PTPβ (Homo sapiens), entry O=C(C(c1ccccc1)S(=O)(=O)O)N1CCCC2CCCCC21 (stereo not shown) . Fill in?
> 200 µM

Continuing:
Missing value: IC50, PTPβ (Homo sapiens), entry O=C(Nc1cccc(OCc2ccccc2)c1)C(c1ccccc1)S(=O)(=O)O (stereo not shown) . Fill in?
> 200 µM

Missing value: IC50, PTPβ (Homo sapiens), entry O=C(C(c1ccccc1)S(=O)(=O)O)N1CCC(c2ccc(Cl)c(Cl)c2)CC1 (stereo not shown) . Fill in?
50 µM

Missing value: IC50, PTPβ (Homo sapiens), entry O=C(Nc1ccc2nc(C(F)(F)F)[nH]c2c1)C(c1ccccc1)S(=O)(=O)O (stereo not shown) . Fill in?
> 200 µM

Missing value: IC50, PTPβ (Homo sapiens), entry "O=C(CS(=O)(=O)O)Nc1ccc2nc(C(F)(F)F)[nH]c2c1" . Fill in?
> 100 µM

Missing value: IC50, PTPβ (Homo sapiens), entry O=C(C(c1ccccc1)S(=O)(=O)O)N1CCC(Cc2ccccc2)CC1 (stereo not shown) . Fill in?
> 200 µM

Missing value: IC50, PTPβ (Homo sapiens), entry O=C(Nc1nc2ccccc2s1)C(c1ccccc1)S(=O)(=O)O (stereo not shown) . Fill in?
> 200 µM

Missing value: IC50, PTPβ (Homo sapiens), entry "O=C(CS(=O)(=O)O)Nc1cnc2ccccc2c1" . Fill in?
> 100 µM

Missing value: IC50, PTPβ (Homo sapiens), entry "O=C(CS(=O)(=O)O)Nc1nc2ccccc2s1" . Fill in?
> 100 µM

Missing value: IC50, PTPβ (Homo sapiens), entry "Cc1c(Br)cc(NC(=O)CS(=O)(=O)O)cc1Br" . Fill in?
> 100 µM

Missing value: IC50, PTPβ (Homo sapiens), entry "O=C(CS(=O)(=O)O)Nc1nc2ccc([N+](=O)[O-])cc2s1" . Fill in?
> 100 µM

Missing value: IC50, PTPβ (Homo sapiens), entry O=C(Nc1cnc2ccccc2c1)C(c1ccccc1)S(=O)(=O)O (stereo not shown) . Fill in?
> 200 µM

---

Biological target: PP5 (Homo sapiens, UniProt P53041)
Sequence (P53041 whole entry): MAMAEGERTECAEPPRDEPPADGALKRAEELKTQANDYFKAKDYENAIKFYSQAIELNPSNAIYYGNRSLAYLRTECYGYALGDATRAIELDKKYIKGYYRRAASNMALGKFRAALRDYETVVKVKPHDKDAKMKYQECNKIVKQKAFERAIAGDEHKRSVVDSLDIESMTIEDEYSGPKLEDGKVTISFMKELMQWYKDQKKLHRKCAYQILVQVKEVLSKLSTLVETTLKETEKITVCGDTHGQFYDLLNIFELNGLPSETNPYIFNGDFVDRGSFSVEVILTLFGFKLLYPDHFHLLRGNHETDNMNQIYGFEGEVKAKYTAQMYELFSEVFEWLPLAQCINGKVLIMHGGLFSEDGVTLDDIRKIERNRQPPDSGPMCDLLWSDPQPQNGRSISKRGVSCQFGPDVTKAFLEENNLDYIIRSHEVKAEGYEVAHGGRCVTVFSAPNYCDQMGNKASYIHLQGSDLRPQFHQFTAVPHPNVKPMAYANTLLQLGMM
Assay: Phosphatase inhibition assay (pNPP)
pIC50: −log10 of the molar value.
Form field: pIC50 (one value per entry).

// known answers, use as guide
Bench note: what pIC50 did O=C(Nc1ccc(N2CCOCC2)cc1)C(c1ccccc1)S(=O)(=O)O (centres unmarked) show?
< 3.70

Bench note: what pIC50 did O=C(Nc1cnc2ccccc2c1)C(c1ccccc1)S(=O)(=O)O (centres unmarked) show?
< 3.70

Bench note: what pIC50 did "O=C(CS(=O)(=O)O)Nc1nc2ccccc2s1" show?
< 4.00

Bench note: what pIC50 did "O=C(CS(=O)(=O)O)Nc1ccc2nc(C(F)(F)F)[nH]c2c1" show?
< 4.00

Continuing:
Bench note: what pIC50 did O=C(C(c1ccccc1)S(=O)(=O)O)N1CCCC2CCCCC21 (centres unmarked) show?
< 3.70

---

Form field: IC50 (one value per entry).
Target: LYP (Homo sapiens)
Sequence (Q9Y2R2 1-807): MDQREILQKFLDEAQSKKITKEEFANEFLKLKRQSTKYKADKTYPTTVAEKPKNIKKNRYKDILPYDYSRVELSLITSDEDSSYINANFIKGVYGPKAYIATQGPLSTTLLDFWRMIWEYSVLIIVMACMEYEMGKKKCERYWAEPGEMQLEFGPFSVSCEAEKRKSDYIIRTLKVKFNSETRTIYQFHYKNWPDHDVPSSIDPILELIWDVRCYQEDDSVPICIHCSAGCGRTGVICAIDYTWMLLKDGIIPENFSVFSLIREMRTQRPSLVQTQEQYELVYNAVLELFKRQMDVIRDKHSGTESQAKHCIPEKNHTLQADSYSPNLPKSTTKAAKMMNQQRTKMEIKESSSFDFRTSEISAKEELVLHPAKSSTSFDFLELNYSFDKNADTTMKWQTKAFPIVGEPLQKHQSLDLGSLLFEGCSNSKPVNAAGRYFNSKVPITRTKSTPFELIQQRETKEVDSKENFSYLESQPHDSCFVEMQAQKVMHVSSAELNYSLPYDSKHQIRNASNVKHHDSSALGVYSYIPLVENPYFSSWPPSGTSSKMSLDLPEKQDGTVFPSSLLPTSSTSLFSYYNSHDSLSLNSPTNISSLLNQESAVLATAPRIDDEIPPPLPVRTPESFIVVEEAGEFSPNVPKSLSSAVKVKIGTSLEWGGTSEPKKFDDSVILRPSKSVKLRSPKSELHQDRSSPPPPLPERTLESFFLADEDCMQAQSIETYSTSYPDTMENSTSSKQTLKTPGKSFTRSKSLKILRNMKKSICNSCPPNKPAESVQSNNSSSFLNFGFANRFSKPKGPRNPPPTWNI
Test: PTP inhibition assay (pNPP)
Assay type: biochemical
Details: pNPP at Km, pH 7.0, 25° C.

Bench note: what IC50 did O=C(C(c1ccccc1)S(=O)(=O)O)N1CCC(Cc2ccccc2)CC1 (centres unmarked) [Compound L319N46] show?
> 200 µM

Bench note: what IC50 did O=C(Nc1cnc2ccccc2c1)C(c1ccccc1)S(=O)(=O)O (centres unmarked) [Compound L319M88] show?
> 200 µM

Bench note: what IC50 did COc1ccc2nc(NC(=O)C(c3ccccc3)S(=O)(=O)O)sc2c1 (centres unmarked) [Compound L319N15-10] show?
> 200 µM

Bench note: what IC50 did O=C(Nc1nc2ccccc2s1)C(c1ccc(Br)cc1)S(=O)(=O)O (centres unmarked) [Compound L319N15-14] show?
> 200 µM

Bench note: what IC50 did Nc1ccc2nc(NC(=O)C(c3ccccc3)S(=O)(=O)O)sc2c1 (centres unmarked) [Compound L319N15-12] show?
166 µM

Bench note: what IC50 did O=C(C(c1ccccc1)S(=O)(=O)O)N1CCCC2CCCCC21 (centres unmarked) [Compound L319N53] show?
> 200 µM

Bench note: what IC50 did O=C(CS(=O)(=O)O)Nc1nc2ccccc2s1 [Compound L335N15] show?
> 100 µM

Bench note: what IC50 did O=C(Nc1cccc(OCc2ccccc2)c1)C(c1ccccc1)S(=O)(=O)O (centres unmarked) [Compound L319M52] show?
> 200 µM

Continuing:
Bench note: what IC50 did O=C(Nc1nc2ccccc2s1)C(c1ccccc1F)S(=O)(=O)O (centres unmarked) [Compound L319N15-17] show?
> 100 µM

Bench note: what IC50 did CCOC(=O)c1ccc2nc(NC(=O)C(c3ccccc3)S(=O)(=O)O)sc2c1 (centres unmarked) [Compound L319N15-11] show?
28 µM

Bench note: what IC50 did Cc1cc2nc(NC(=O)C(c3ccccc3)S(=O)(=O)O)sc2cc1C (centres unmarked) [Compound L319N15-04] show?
90 µM

Bench note: what IC50 did O=C(NCc1ccc(NC(=O)C(c2ccccc2)S(=O)(=O)O)cc1)c1ccccc1-c1ccc(C(F)(F)F)cc1 (centres unmarked) [Compound L319-05-A64] show?
62 µM

Bench note: what IC50 did O=C(O)c1ccc2nc(NC(=O)C(c3ccccc3)S(=O)(=O)O)sc2c1 (centres unmarked) [Compound L319N15-13] show?
31 µM

Bench note: what IC50 did "Cc1c(Br)cc(NC(=O)CS(=O)(=O)O)cc1Br" show?
> 100 µM

Bench note: what IC50 did O=C(CS(=O)(=O)O)Nc1nc2ccc([N+](=O)[O-])cc2s1 [Compound L335N15-07] show?
> 100 µM

Bench note: what IC50 did O=C(Nc1nc2ccccc2s1)C(c1ccc([N+](=O)[O-])cc1)S(=O)(=O)O (centres unmarked) [Compound L319N15-16] show?
180 µM
